# maps each entry to its inhibition
- Experiment: M. tuberculosis H37Rv growth inhibitors, H37Rv strain (AID 1626);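 note: bacteria incubated seven days before Alamar blue readout; 0% = bacteria only wells and 100% = bacteria with antibiotic wells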
- Test Settings: stronger effect = higher value, concentration not given here
In all, about 220,000 compounds went through this assay and about 2,000 (0.91%) were called active. Another 2% or so got no clear call; they are omitted. A selection follows. Potency and affinity values are given separately.

- Compound: "CCOC(=O)N1CCC(NC(=O)CS(=O)Cc2nc(-c3ccc(OC)c(OC)c3)oc2C)CC1 (stereo not given)"
  inhibition [%]: 1.72
- Compound: "CCCCn1nnc(NC(=O)c2ccc(-c3ccccc3[N+](=O)[O-])o2)n1"
  inhibition [%]: 9.1
- Compound: "O=C(Nc1cccc(NC(=O)c2cccs2)c1)c1ccc2c(c1)OCCO2"
  inhibition [%]: 4
- Compound: "CCC(C)OC(=O)C1=C(C)O[C@]23OC(N)=C(C#N)[C@]12C(=O)c1ccccc13 (stereo not given in full)"
  inhibition [%]: 3.72
- Compound: "CCOC(=O)c1[nH]ncc1CN1CCC(Cc2cccc(OC)c2)(C(=O)OCC)CC1"
  inhibition [%]: -9.77
- Compound: "CCOc1cc(/C=C/c2cc(C(F)(F)F)[nH]c(=O)n2)ccc1O"
  inhibition [%]: 2.01
- Compound: "COc1ccc(S(=O)(=O)N2CCCC(C(=O)NCc3ccncc3)C2)cc1 (stereo not given)"
  inhibition [%]: -3.7
- Compound: "COc1ccc(-n2c(O)c(C(C)=NCCCn3ccnc3)c(=O)[nH]c2=O)cc1"
  inhibition [%]: -3.9
- Compound: "O=C(CCNC(=O)c1ccco1)NCc1ccccc1"
  inhibition [%]: 0.15
- Compound: "Cc1ccc(-c2nc(CS(=O)CC(=O)NCc3ccccc3)c(C)o2)cc1 (stereo not given)"
  inhibition [%]: 3.18

====

# maps each entry to its inhibition
- Experiment: M. tuberculosis H37Rv growth inhibitors, H37Rv strain (AID 1626);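 note: bacteria incubated seven days before Alamar blue readout; 0% = bacteria only wells and 100% = bacteria with antibiotic wells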
- Test Settings: stronger effect = higher value, concentration not given here
In all, about 220,000 compounds went through this assay and about 2,000 (0.91%) were called active. Not shown: some 2% with an inconclusive outcome. A selection follows. Potency and affinity values are given separately.
Recorded Endpoint: inhibition (%)

- Compound: "CC1CC(C)CN(CC(O)COCCOc2ccc(Br)cc2)C1 (centres undefined)"
  Recorded Endpoint: "inhibition"
  Observed Value: 0.51
- Compound: "FC(F)(F)c1ccc(CN2C[C@@H]3C(c4ccc(Cl)nc4)C4(c5ccccc5)CC3(C4)[C@H]2c2ccccc2)cc1 (some centres undefined)"
  Recorded Endpoint: "inhibition"
  Observed Value: 7.77
- Compound: "FC(F)(F)c1ccc(C2[C@H]3CN(CC4CCCCC4)[C@H](c4ccccc4)C34CC2(c2cccnc2)C4)cc1 (some centres undefined)"
  Recorded Endpoint: "inhibition"
  Observed Value: 19.8
- Compound: "CN1C[C@@H]2C(c3ccc(C(F)(F)F)cc3)C3(c4ccccc4)CC2(C3)[C@H]1c1ccccc1 (some centres undefined)"
  Recorded Endpoint: "inhibition"
  Observed Value: 2.02

====

- Experiment: M. tuberculosis H37Rv growth inhibitors, H37Rv strain (AID 1626);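 note: bacteria incubated seven days before Alamar blue readout; 0% = bacteria only wells and 100% = bacteria with antibiotic wells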
- Test Settings: stronger effect = higher value, concentration not given here
About 2,000 (0.91%) of roughly 220,000 compounds were called active. Not shown: some 2% with an inconclusive outcome. Not all results are given here. Entries with a potency or affinity are not part of this list.

- Molecule: "Cc1cccc(NC(=O)c2c(O)c3cccc4c3n(c2=O)CCC4)n1"
  Units: "%"
  inhibition: -9.1
- Molecule: "CSc1ncccc1C(=O)OCC(=O)c1ccccc1Br"
  Units: "%"
  inhibition: -4.85
- Molecule: "COc1ccc(/C=N/NC(=O)c2cccnc2)cc1CN1CCc2cc(OC)c(OC)cc2C1C (stereo unspecified)"
  Units: "%"
  inhibition: 1.27
- Molecule: "Cc1[nH]nc(NNC(=O)c2ccccc2)c1[N+](=O)[O-]"
  Units: "%"
  inhibition: -6.74
- Molecule: "O=C(CN1C(=O)c2ccccc2C1=O)Nc1ccc(N2CCOCC2)cc1"
  Units: "%"
  inhibition: 1.44
- Molecule: "Cc1oc(C)c(C(=O)O)c1COc1ccc(C(=O)O)cc1"
  Units: "%"
  inhibition: -4.93
- Molecule: "COc1ccccc1NC(=O)CN1C(=O)NC(CC(C)C)C1=O (stereo unspecified)"
  Units: "%"
  inhibition: -11.7
- Molecule: "Cc1cc(C)c(C(=O)Nc2ccc(C)c(C)c2)c(CC(C)(C)C(=O)O)c1"
  Units: "%"
  inhibition: -5.76
- Molecule: "O=C(CSc1ncccn1)Nc1ccc2c(c1)CCC2"
  Units: "%"
  inhibition: 76
- Molecule: "CCC(C)NS(=O)(=O)c1ccc(NC(C)=O)cc1 (stereo unspecified)"
  Units: "%"
  inhibition: -1.33
- Molecule: "O=C(Nc1ccccn1)c1c(O)c2cccc3c2n(c1=O)CCC3"
  Units: "%"
  inhibition: -3.22
- Molecule: "COc1cccc(C2CC(=O)N3CN(c4cccc(Cl)c4C)CSC3=C2C#N)c1OC (stereo unspecified)"
  Units: "%"
  inhibition: -1.72
- Molecule: "Cc1ccc(-n2c(-c3ccncc3)n[nH]c2=S)cc1"
  Units: "%"
  inhibition: -9.92
- Molecule: "CCOC(=O)N1CCC(NC(=O)C2CCN(S(=O)(=O)c3ccc4c(c3)oc(=O)n4C)CC2)CC1"
  Units: "%"
  inhibition: -3.61
- Molecule: "CC(=O)Oc1ccc2c(C)cc(=O)oc2c1"
  Units: "%"
  inhibition: 74.8
- Molecule: "CCCCNC(=O)c1c(O)c2cccc3c2n(c1=O)CCC3"
  Units: "%"
  inhibition: 3.46
- Molecule: "CC(C)CN(CCCNC(=O)CN1C(=O)COc2ccc(S(=O)(=O)N3CCCC3)cc21)CC(C)C"
  Units: "%"
  inhibition: -2.35
- Molecule: "Clc1cc2cccnc2c2ccccc12"
  Units: "%"
  inhibition: -3.53
- Molecule: "Cc1cccc(Nc2nc(NCc3ccco3)nc(N3CCOCC3)n2)c1"
  Units: "%"
  inhibition: -1.15
- Molecule: "Cc1ccc(N2CSC3=C(C#N)C(c4cccs4)CC(=O)N3C2)cc1 (stereo unspecified)"
  Units: "%"
  inhibition: 7.29
- Molecule: "COc1cc(C2c3c(oc4ccccc4c3=O)C(=O)N2Cc2cccnc2)cc(OC)c1OC (stereo unspecified)"
  Units: "%"
  inhibition: 1.59
- Molecule: "COCCOC(=O)c1c(C)oc2ccc(OS(C)(=O)=O)cc12"
  Units: "%"
  inhibition: 10.4
- Molecule: "COCCOC(=O)c1c(C)oc2ccc(OC(=O)N(C)C)cc12"
  Units: "%"
  inhibition: -0.97
- Molecule: "O=C(Nc1nnc(Cc2ccccc2)s1)c1cccs1"
  Units: "%"
  inhibition: -2.7
- Molecule: "O=C(NCc1cccc(Cl)c1)c1ccco1"
  Units: "%"
  inhibition: 0.19
- Molecule: "CN1/C(=C\\C(=O)c2cncc(Br)c2)C(C)(C)c2ccccc21"
  Units: "%"
  inhibition: 25.1
- Molecule: "CCOC(=O)COc1cc([N+](=O)[O-])cc2cccnc12"
  Units: "%"
  inhibition: 3.26
- Molecule: "CCOC(=O)C1(CCOc2ccccc2)CCN(Cc2ccc3c(c2)OCCO3)CC1"
  Units: "%"
  inhibition: -3.31
- Molecule: "CSc1nc(C)c2c(n1)N(c1ccc(F)cc1)CC2"
  Units: "%"
  inhibition: 5.51
- Molecule: "O=C(NNC1=NCCC1)c1cccc(S(=O)(=O)N2CCCC2)c1"
  Units: "%"
  inhibition: -1.54
- Molecule: "COc1ccccc1CCc1nnc(CCC(=O)NC(C)Cc2cccc(C)n2)o1 (stereo unspecified)"
  Units: "%"
  inhibition: -7.73
- Molecule: "CCc1ccc(N2CSC3=C(C#N)C(c4cccs4)CC(=O)N3C2)cc1 (stereo unspecified)"
  Units: "%"
  inhibition: 22.1
- Molecule: "CN1/C(=C\\C(=O)c2cccnc2)C(C)(C)c2ccccc21"
  Units: "%"
  inhibition: -3.35
- Molecule: "OC(COc1ccc(OCc2ccccc2)cc1)CN1CCCCC1 (stereo unspecified)"
  Units: "%"
  inhibition: 3.57
- Molecule: "CC(NC(=O)Cn1c(NCCO)nc2ccccc21)C1CC2CCC1C2 (stereo unspecified)"
  Units: "%"
  inhibition: -0.5
- Molecule: "COc1ccc(N2CSC3=C(C#N)C(c4cc(OC)c(OC)cc4OC)CC(=O)N3C2)c(OC)c1 (stereo unspecified)"
  Units: "%"
  inhibition: 15
- Molecule: "Nc1nc2ccc(O)cc2s1"
  Units: "%"
  inhibition: -4.72
- Molecule: "Cc1cc(=O)oc2cc(OC(=O)c3ccccc3)ccc12"
  Units: "%"
  inhibition: 70
- Molecule: "COc1ccc(C(=O)C(CCC(CNC(C)(C)C)C(=O)c2ccc(OC)cc2)CNC(C)(C)C)cc1 (stereo unspecified)"
  Units: "%"
  inhibition: 3.24
- Molecule: "COCCOC(=O)c1c(C)oc2ccc(OC(=O)c3c(OC)cccc3OC)cc12"
  Units: "%"
  inhibition: 9.56
- Molecule: "Cc1nc2nc[nH]n2c(=O)c1C/C=C/c1ccccc1"
  Units: "%"
  inhibition: -3.13
- Molecule: "CNC(=O)c1c(O)c2cccc3c2n(c1=O)CC3"
  Units: "%"
  inhibition: -2
- Molecule: "CC(=O)CSc1nc2ccc(Nc3nc(N4CCOCC4)nc(N4CCOCC4)n3)cc2s1"
  Units: "%"
  inhibition: 4.02
- Molecule: "C/C(N)=C(/C#N)C(=O)COC(=O)c1ccccc1Oc1ccccc1"
  Units: "%"
  inhibition: -2.05
- Molecule: "COc1ccc(Nc2nc(NCc3ccco3)nc(N3CCOCC3)n2)cc1"
  Units: "%"
  inhibition: -1.04
- Molecule: "O=C(Nc1nnc(CCc2ccccc2)s1)c1cccs1"
  Units: "%"
  inhibition: -0.19

These measurements were taken from PubChem BioAssay AID1626.
